B1: HDV Ribozyme (parent)
chain: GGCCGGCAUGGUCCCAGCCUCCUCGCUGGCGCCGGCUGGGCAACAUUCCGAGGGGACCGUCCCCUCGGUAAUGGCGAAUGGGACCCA

Variants of: B1
ASSAY NAME: self-cleavage, relative activity (ratio to wild type); higher = more cleavage; co-transcriptional
READOUT KIND: self-cleavage

Worked set:
{"columns": ["VARIANT NAME", "self-cleavage"],
 "data": [
  ["G2C C75U", 0.0594],
  ["C26U C62G", 0.618],
  ["A8C C30U", 0.415],
  ["C18U C58A", 0.612],
  ["G29C U46A", 0.178],
  ["C18A G55C", 0.133],
  ["U47A G81U", 0.219],
  ["G2U G73U", 0.0361]
]}

Memo: G52A C62A , reported self-cleavage: 0.732

Memo: G74U A83U , reported self-cleavage: 0.259

Memo: U20C G55A , reported self-cleavage: 0.0405
